As shown below, each of these binders has a reported koff value.
molecular target: T1, Purified recombinant human CD26 (rhDipeptidyl peptidase IV), R&D Systems CAT #1180-SE (human, UniProt P27487 29-766); experiment: SPR (Biacore), Fab
T1 construct: Bought recombinant protein; also called hu-CD26; soluble human CD26
T1 sequence (P27487 29-766 limits assumed): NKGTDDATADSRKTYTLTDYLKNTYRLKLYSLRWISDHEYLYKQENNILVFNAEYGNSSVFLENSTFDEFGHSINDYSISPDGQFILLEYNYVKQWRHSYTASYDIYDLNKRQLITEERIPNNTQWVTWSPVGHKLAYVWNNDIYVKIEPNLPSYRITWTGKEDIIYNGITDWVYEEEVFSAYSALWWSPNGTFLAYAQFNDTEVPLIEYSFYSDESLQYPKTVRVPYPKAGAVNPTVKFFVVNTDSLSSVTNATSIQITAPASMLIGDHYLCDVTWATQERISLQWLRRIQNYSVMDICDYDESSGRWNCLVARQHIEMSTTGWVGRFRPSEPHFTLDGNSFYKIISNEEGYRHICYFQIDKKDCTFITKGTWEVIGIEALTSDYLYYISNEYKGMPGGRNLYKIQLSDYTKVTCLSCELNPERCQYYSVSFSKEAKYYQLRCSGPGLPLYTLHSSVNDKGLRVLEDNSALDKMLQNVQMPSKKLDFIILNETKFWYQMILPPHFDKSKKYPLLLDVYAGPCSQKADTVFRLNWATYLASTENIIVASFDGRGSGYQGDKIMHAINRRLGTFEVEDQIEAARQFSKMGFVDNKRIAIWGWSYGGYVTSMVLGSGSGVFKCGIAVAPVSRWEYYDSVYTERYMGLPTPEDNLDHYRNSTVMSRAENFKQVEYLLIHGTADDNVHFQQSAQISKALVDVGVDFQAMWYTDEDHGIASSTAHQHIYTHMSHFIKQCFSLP
propertyMeasured: koff (s⁻¹)

{"binder": "Fab comprising X388 VH and CM03 VL (Fab, V domains shown, Fab made in E. coli) VH: EVQLVQSGGGLKQPGETLRLSCTASGYSLTTYGVHWVRQAPGKGLEWMGVIWGDGRTDYDSSFMSRVTISKDTSKSTAYLQLNSLRAEDTAVYYCTRNRHDWFDYWGQGTTVTVSS VL: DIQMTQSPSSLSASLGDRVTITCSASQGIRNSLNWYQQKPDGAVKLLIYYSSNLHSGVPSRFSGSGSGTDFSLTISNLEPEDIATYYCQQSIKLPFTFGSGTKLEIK", "readoutNumber": 0.000698}
{"binder": "Fab comprising X387 VH and CM03 VL (Fab, V domains shown, Fab made in E. coli) VH: EVQLVESGAELVQPGGSLRLTCKASGFTLNTYGVHWVRQAPGKGLEWMGVIWGGGRTDYDASFMSRVTISKDNSKNTAYLQLNSLRAEDTAVYYCTRSRHDWFDYWGQGTTVTVSS VL: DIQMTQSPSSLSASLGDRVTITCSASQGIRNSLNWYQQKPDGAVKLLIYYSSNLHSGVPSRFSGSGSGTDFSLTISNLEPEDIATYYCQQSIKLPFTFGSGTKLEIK", "readoutNumber": 0.01}
{"binder": "Fab comprising X384 VH and CM03 VL (Fab, V domains shown, Fab made in E. coli) VH: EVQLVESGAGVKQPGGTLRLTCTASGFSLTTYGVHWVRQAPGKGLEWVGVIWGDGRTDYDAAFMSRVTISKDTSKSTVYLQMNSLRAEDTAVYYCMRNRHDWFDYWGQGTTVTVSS VL: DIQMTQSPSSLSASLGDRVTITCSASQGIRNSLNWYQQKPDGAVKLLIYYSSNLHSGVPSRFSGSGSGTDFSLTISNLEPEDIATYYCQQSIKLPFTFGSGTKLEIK", "readoutNumber": 0.000312}
{"binder": "Fab comprising X386 VH and CM03 VL (Fab, V domains shown, Fab made in E. coli) VH: EVQLVESGAGVEQPGGTLRLTCTASGFSLTTYGVHWVRQAPGKGLEWMGVIWGDGRTDYDAAFMSRVTISRDTSKSTAYLQLNSLRAEDTAVYYCVRNRHDWFDYWGQGTTVTVSS VL: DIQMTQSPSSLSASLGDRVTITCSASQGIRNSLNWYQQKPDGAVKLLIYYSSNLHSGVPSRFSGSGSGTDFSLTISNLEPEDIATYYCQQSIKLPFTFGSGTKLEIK", "readoutNumber": 0.000498}
{"binder": "Fab comprising X385 VH and CM03 VL (Fab, V domains shown, Fab made in E. coli) VH: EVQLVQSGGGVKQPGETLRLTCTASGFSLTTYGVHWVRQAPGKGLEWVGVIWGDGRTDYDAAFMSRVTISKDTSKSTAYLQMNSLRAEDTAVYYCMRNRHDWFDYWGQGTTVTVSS VL: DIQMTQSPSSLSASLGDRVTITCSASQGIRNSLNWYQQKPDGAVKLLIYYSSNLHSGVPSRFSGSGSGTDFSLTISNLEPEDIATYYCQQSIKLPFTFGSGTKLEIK", "readoutNumber": 0.000375}
